# Test description: Cytotoxicity against mouse 3T3-L1 cells assessed as cell viability at 3 uM incubated for 48 hrs by CCK-8 assay relative to control
# Assay type: toxicity, cell-based
# Condition label: read-out: Activity
Measured metric: viability at 48 h, 3 µM

Param item = C=C(c1ccc(O)c(Oc2cc3c(cc2OC)CCN(C)[C@@H]3Cc2ccc(OC)cc2)c1)[C@H]1c2cc(OC)c(OC)cc2CCN1C ; retrieve measured viability at 48 h, 3 µM.
> 80%

What value of viability at 48 h, 3 µM has been recorded for this entry: C=C(c1ccc(O)c(Oc2cc3c(cc2OC)CCN(C)[C@@H]3Cc2ccc(OC)cc2)c1)[C@H]1c2cc(O)c(OC)cc2CCN1C
> 80%

// lookup viability at 48 h, 3 µM for COc1ccc(C[C@@H]2c3cc(Oc4cc(C[C@H]5c6cc(OC)c(OC)cc6CCN5C)ccc4O)c(OC)cc3CCN2C)cc1
> 80%

* * *

# Test description: Cytotoxicity against mouse 3T3-L1 cells assessed as cell viability at 100 uM incubated for 48 hrs by CCK-8 assay relative to control
# Assay type: toxicity, cell-based
# Condition label: read-out: Activity
Measured metric: viability at 48 h, 100 µM

Field request: viability at 48 h, 100 µM | item: COc1cc2c(cc1O)C(Cc1ccc(O)c(-c3c(O)c(OC)cc4c3C(Cc3ccc(O)cc3)N(C)CC4)c1)N(C)CC2 (stereo unspecified)
> 80%

* * *

# Test description: Cytotoxicity against mouse 3T3-L1 cells transfected with Lenti-PPARgamma-Luc reporter assessed as cell viability at 25 uM incubated for 48 hrs by CCK-8 assay relative to control
# Assay type: toxicity, cell-based
# Condition label: read-out: Activity
Assignment: determine reported viability at 48 h, 25 µM for the given compounds.

Which viability at 48 h, 25 µM value is on record for COc1cc2c(cc1OC)[C@@H](Cc1ccc(O)c(Oc3cc4c(cc3OC)CCN(C)[C@@H]4Cc3ccc(O)cc3)c1)N(C)CC2 ?
< 80%

# get_value(readout='viability at 48 h, 25 µM', item= COc1cc2c(cc1O)[C@@H](Cc1ccc(O)c(Oc3cc4c(cc3OC)CCN(C)[C@@H]4Cc3ccc(O)cc3)c1)N(C)CC2 )
< 80%

* * *

# Test description: Cytotoxicity against mouse 3T3-L1 cells assessed as cell viability at 25 uM incubated for 48 hrs by CCK-8 assay relative to control
# Assay type: toxicity, cell-based
# Condition label: read-out: Activity
Provide the reported viability at 48 h, 25 µM of each item.

State the recorded viability at 48 h, 25 µM for this entry: COc1cc2c(cc1O)C(Cc1ccc(O)c(-c3c(O)c(OC)cc4c3C(Cc3ccc(O)cc3)N(C)CC4)c1)N(C)CC2 (stereo unspecified)
> 80%

Looking for the measured viability at 48 h, 25 µM of COc1cc2c(cc1OC)[C@@H](Cc1ccc(O)c(Oc3cc4c(cc3OC)CCN(C)[C@@H]4Cc3ccc(O)cc3)c1)N(C)CC2 , can you help?
< 80%

Consider the compound shown here: COc1cc2c(cc1O)[C@@H](Cc1ccc(O)c(Oc3cc4c(cc3OC)CCN(C)[C@@H]4Cc3ccc(O)cc3)c1)N(C)CC2 What is its recorded viability at 48 h, 25 µM?
< 80%

# get_value(readout='viability at 48 h, 25 µM', item= COc1ccc(C[C@@H]2c3cc(Oc4cc(/C=C5\CN(C)CCc6cc(OC)c(OC)cc65)ccc4O)c(OC)cc3CCN2C)cc1 )
< 80%

I have this compound here, C=C(c1ccc(OC)cc1)[C@@H]1c2cc(Oc3cc(C[C@H]4c5cc(OC)c(OC)cc5CCN4C)ccc3O)c(OC)cc2CCN1C , and I need its recorded viability at 48 h, 25 µM.
< 80%

Form field: reported viability at 48 h, 25 µM of C=C(c1ccc(O)c(Oc2cc3c(cc2OC)CCN(C)[C@@H]3Cc2ccc(OC)cc2)c1)[C@@H]1c2cc(OC)c(OC)cc2CCN1C
< 80%

* * *

Record form. Attribute: viability at 48 h, 1 µM. Fill in for each entry.
# Test description: Cytotoxicity against mouse 3T3-L1 cells assessed as cell viability at 1 uM incubated for 48 hrs by CCK-8 assay relative to control
# Type: toxicity, cell-based
# Condition label: read-out: Activity

Reported viability at 48 h, 1 µM for COc1ccc(C[C@@H]2c3cc(Oc4cc(C[C@H]5c6cc(OC)c(OC)cc6CCN5C)ccc4O)c(OC)cc3CCN2C)cc1 : what is it?
> 80%

Item under review: C=C(c1ccc(O)c(Oc2cc3c(cc2OC)CCN(C)[C@@H]3Cc2ccc(OC)cc2)c1)[C@H]1c2cc(OC)c(OC)cc2CCN1C . Reported viability at 48 h, 1 µM?
> 80%

For the molecule shown here, C=C(c1ccc(O)c(Oc2cc3c(cc2OC)CCN(C)[C@@H]3Cc2ccc(OC)cc2)c1)[C@H]1c2cc(O)c(OC)cc2CCN1C , give the reported viability at 48 h, 1 µM.
> 80%

* * *

Record form. Attribute: viability at 48 h, 15 µM. Fill in for each entry.
# Test description: Cytotoxicity against mouse 3T3-L1 cells assessed as cell viability at 15 uM incubated for 48 hrs by CCK-8 assay relative to control
# Type: toxicity, cell-based
# Condition label: read-out: Activity

Item COc1cc2c(cc1O)[C@@H](Cc1ccc(O)c(Oc3cc4c(cc3OC)CCN(C)[C@@H]4Cc3ccc(O)cc3)c1)N(C)CC2 has what recorded viability at 48 h, 15 µM?
> 80%

For the molecule shown here, COc1cc2c(cc1OC)[C@@H](Cc1ccc(O)c(Oc3cc4c(cc3OC)CCN(C)[C@@H]4Cc3ccc(O)cc3)c1)N(C)CC2 , give the reported viability at 48 h, 15 µM.
> 80%

Which viability at 48 h, 15 µM value is on record for COc1ccc(C[C@@H]2c3cc(Oc4cc(C[C@@H]5c6cc(O)c(OC)cc6CCN5C)ccc4O)c(OC)cc3CCN2C)cc1 ?
< 80%

Find the recorded viability at 48 h, 15 µM belonging to C=C(c1ccc(OC)cc1)[C@@H]1c2cc(Oc3cc(C[C@H]4c5cc(OC)c(OC)cc5CCN4C)ccc3O)c(OC)cc2CCN1C and report it.
> 80%

Need viability at 48 h, 15 µM of COc1ccc(C[C@@H]2c3cc(Oc4cc(/C=C5\CN(C)CCc6cc(OC)c(OC)cc65)ccc4O)c(OC)cc3CCN2C)cc1 , thanks.
> 80%

// viability at 48 h, 15 µM lookup, key: COc1ccc(C[C@@H]2c3cc(Oc4cc(C[C@@H]5c6cc(OC)c(OC)cc6CCN5C)ccc4O)c(OC)cc3CCN2C)cc1
< 80%

Record request: viability at 48 h, 15 µM value, item COc1ccc(C[C@@H]2c3cc(Oc4cc(C[C@H]5c6cc(OC)c(OC)cc6CCN5C)ccc4O)c(OC)cc3CCN2C)cc1
> 80%

Could you share which viability at 48 h, 15 µM value was measured for C=C(c1ccc(O)c(Oc2cc3c(cc2OC)CCN(C)[C@@H]3Cc2ccc(OC)cc2)c1)[C@@H]1c2cc(OC)c(OC)cc2CCN1C ?
> 80%

Query (molecule): C=C(c1ccc(O)c(Oc2cc3c(cc2OC)CCN(C)[C@@H]3Cc2ccc(OC)cc2)c1)[C@@H]1c2cc(O)c(OC)cc2CCN1C ; field requested: viability at 48 h, 15 µM
< 80%

* * *

# Test description: Cytotoxicity against mouse 3T3-L1 cells assessed as cell viability at 50 uM incubated for 48 hrs by CCK-8 assay relative to control
# Assay type: toxicity, cell-based
# Condition label: read-out: Activity
Measured metric: viability at 48 h, 50 µM

Entry COc1cc2c(cc1O)C(Cc1ccc(O)c(-c3c(O)c(OC)cc4c3C(Cc3ccc(O)cc3)N(C)CC4)c1)N(C)CC2 (stereo unspecified) has what viability at 48 h, 50 µM?
> 80%

* * *

# Test description: Cytotoxicity against mouse 3T3-L1 cells assessed as cell viability at 7.5 uM incubated for 48 hrs by CCK-8 assay relative to control
# Assay type: toxicity, cell-based
# Condition label: read-out: Activity
Task for the reader: assign each of the following compounds its reported viability at 48 h, 7.5 µM.

Quick one: viability at 48 h, 7.5 µM for C=C(c1ccc(O)c(Oc2cc3c(cc2OC)CCN(C)[C@@H]3Cc2ccc(OC)cc2)c1)[C@H]1c2cc(O)c(OC)cc2CCN1C ?
< 80%

Given the entry C=C(c1ccc(O)c(Oc2cc3c(cc2OC)CCN(C)[C@@H]3Cc2ccc(OC)cc2)c1)[C@H]1c2cc(OC)c(OC)cc2CCN1C , report its measured viability at 48 h, 7.5 µM.
< 80%

I have this compound here, COc1ccc(C[C@@H]2c3cc(Oc4cc(C[C@H]5c6cc(OC)c(OC)cc6CCN5C)ccc4O)c(OC)cc3CCN2C)cc1 , and I need its recorded viability at 48 h, 7.5 µM.
< 80%

* * *

# Test description: Cytotoxicity against mouse 3T3-L1 cells transfected with Lenti-PPARgamma-Luc reporter assessed as cell viability at 20 uM incubated for 48 hrs by CCK-8 assay relative to control
# Type: toxicity, cell-based
# Condition label: read-out: Activity
Give viability at 48 h, 20 µM for every item shown.

Fill in: viability at 48 h, 20 µM of C=C(c1ccc(OC)cc1)[C@@H]1c2cc(Oc3cc(C[C@H]4c5cc(OC)c(OC)cc5CCN4C)ccc3O)c(OC)cc2CCN1C is ___
< 80%

Which viability at 48 h, 20 µM is listed for COc1ccc(C[C@@H]2c3cc(Oc4cc(C[C@@H]5c6cc(O)c(OC)cc6CCN5C)ccc4O)c(OC)cc3CCN2C)cc1 ?
< 80%

For C=C(c1ccc(O)c(Oc2cc3c(cc2OC)CCN(C)[C@@H]3Cc2ccc(OC)cc2)c1)[C@@H]1c2cc(OC)c(OC)cc2CCN1C , what is its reported viability at 48 h, 20 µM?
< 80%

Suppose we examine the compound COc1cc2c(cc1O)[C@@H](Cc1ccc(O)c(Oc3cc4c(cc3OC)CCN(C)[C@@H]4Cc3ccc(O)cc3)c1)N(C)CC2 ; what viability at 48 h, 20 µM value has been reported?
> 80%

Which value of viability at 48 h, 20 µM has been reported for COc1ccc(C[C@@H]2c3cc(Oc4cc(/C=C5\CN(C)CCc6cc(OC)c(OC)cc65)ccc4O)c(OC)cc3CCN2C)cc1 in the records?
< 80%

Query (compound): COc1ccc(C[C@@H]2c3cc(Oc4cc(C[C@@H]5c6cc(OC)c(OC)cc6CCN5C)ccc4O)c(OC)cc3CCN2C)cc1 ; field requested: viability at 48 h, 20 µM
< 80%

I would be grateful if you could share the reported viability at 48 h, 20 µM for C=C(c1ccc(O)c(Oc2cc3c(cc2OC)CCN(C)[C@@H]3Cc2ccc(OC)cc2)c1)[C@@H]1c2cc(O)c(OC)cc2CCN1C .
< 80%

Sample COc1cc2c(cc1OC)[C@@H](Cc1ccc(O)c(Oc3cc4c(cc3OC)CCN(C)[C@@H]4Cc3ccc(O)cc3)c1)N(C)CC2 — what was its viability at 48 h, 20 µM?
< 80%
